Target: recombinant human TFPI (tissue factor pathway inhibitor) (human, UniProt P10646 29-304)
Experiment: cell-based or functional assay
Exercise: state measured effect of inhibiting TFPI, FXa activity assay, Ab 20 nM for each of the binders provided.

Challenge: Look up effect of inhibiting TFPI, FXa activity assay, Ab 20 nM for this binder: clone A67 (antibody, V domains shown) VH: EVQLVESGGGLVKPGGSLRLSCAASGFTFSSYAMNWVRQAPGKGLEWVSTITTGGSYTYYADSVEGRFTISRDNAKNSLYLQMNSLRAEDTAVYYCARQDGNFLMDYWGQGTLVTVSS VL: DVVMTQTPLSLPVTLGQPASISCKSSQSLLDLDGKTYLNWLQQRPGQSPKRLIYLVSKLDSGVPDRFTGSGSGTDFTLKISRVEAEDVGVYYCWQGTHFPFTFGQGTKVEIKR
Response given: ~79%

Challenge: Can you check clone 3 (antibody, V domains shown) VH: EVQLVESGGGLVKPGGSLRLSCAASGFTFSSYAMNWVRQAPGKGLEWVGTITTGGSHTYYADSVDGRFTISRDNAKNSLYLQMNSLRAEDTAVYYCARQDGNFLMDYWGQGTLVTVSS VL: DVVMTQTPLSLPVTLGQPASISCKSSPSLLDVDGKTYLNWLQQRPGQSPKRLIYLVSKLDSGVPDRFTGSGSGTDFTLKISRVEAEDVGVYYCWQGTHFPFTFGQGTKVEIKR next?
Response given: ~81%

Challenge: Lookup clone 16 (antibody, V domains shown) VH: EVQLVESGGGLVKPGGSLRLSCAASGFTFSHYAMTWVRQAPGKGLEWVSTITTGGSHTYYADSVEGRFTISRDNAKNSLYLQMNSLRAEDTAVYYCARQDGNFLMDYWGQGTLVTVSS VL: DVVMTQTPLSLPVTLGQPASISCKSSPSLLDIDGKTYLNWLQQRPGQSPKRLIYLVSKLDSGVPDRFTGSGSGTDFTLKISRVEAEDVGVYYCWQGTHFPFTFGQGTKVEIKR
Response given: ~55%

Challenge: Further, for clone 12 (antibody, V domains shown, human IgG4/kappa IgG as purified; also called No. 12 antibody) VH: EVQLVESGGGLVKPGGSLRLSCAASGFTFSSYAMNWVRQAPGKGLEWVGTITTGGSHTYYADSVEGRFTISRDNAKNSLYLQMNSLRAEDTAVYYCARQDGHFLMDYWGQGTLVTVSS VL: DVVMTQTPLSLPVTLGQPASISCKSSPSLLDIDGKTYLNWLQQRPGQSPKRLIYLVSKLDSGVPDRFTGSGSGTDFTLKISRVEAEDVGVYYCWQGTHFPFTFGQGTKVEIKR ?
Response given: ~82%

Challenge: Now give it for clone 11 (antibody, V domains shown) VH: EVQLVESGGGLVKPGGSLRLSCAASGFTFSSYAMNWVRQAPGKGLEWVGTITTGGSYTYYADSVEGRFTISRDNAKNSLYLQMNSLRAEDTAVYYCARQDGNFLMDYWGQGTLVTVSS VL: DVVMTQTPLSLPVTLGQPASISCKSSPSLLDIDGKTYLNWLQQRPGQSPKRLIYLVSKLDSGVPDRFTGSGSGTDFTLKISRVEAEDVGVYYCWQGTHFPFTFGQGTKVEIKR too.
Response given: ~89%

All values here come from patent US20180030151A1.
